Taken from PubChem BioAssay.

Molecular target: Receptor tyrosine-protein kinase erbB-2 (Homo sapiens) (UniProt P04626)
Sequence (P04626 whole entry, looked up): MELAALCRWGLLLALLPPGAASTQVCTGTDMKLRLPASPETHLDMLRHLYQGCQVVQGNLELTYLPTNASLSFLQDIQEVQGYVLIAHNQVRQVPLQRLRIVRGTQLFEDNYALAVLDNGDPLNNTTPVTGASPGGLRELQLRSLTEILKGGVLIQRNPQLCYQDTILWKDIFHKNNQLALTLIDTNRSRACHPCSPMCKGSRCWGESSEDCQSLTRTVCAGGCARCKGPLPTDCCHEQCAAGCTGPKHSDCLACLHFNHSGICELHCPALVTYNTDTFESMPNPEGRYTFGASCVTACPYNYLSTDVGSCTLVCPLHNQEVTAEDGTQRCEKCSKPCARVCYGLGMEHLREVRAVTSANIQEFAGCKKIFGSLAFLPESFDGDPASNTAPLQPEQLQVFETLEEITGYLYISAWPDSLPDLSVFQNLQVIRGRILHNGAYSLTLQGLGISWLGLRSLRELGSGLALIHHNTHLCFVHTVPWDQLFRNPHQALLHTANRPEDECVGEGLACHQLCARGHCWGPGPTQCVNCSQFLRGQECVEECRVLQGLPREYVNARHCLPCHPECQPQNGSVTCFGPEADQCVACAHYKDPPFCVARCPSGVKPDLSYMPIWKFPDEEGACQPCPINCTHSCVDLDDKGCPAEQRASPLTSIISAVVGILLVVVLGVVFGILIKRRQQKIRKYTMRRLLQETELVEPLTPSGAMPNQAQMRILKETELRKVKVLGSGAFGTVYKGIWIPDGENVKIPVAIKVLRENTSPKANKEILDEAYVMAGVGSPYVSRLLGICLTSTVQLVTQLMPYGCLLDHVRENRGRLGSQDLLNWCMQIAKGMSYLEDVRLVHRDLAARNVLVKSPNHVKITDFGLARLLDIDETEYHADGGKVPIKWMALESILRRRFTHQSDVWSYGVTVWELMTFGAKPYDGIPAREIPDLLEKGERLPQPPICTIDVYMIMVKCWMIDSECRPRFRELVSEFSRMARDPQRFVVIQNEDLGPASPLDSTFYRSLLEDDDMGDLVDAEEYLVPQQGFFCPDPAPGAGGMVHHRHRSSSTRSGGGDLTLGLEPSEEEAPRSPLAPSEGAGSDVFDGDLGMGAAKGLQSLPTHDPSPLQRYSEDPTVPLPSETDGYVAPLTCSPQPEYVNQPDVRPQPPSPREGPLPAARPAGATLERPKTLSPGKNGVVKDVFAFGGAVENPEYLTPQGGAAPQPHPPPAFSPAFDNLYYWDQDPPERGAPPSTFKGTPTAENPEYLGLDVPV
Assay: reducers of endogenous Her2 protein level, primary screen, SKBR3 breast tumor cells, AlphaScreen, ATP viability (AID 461);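 on Her2 level: lower value means less Her2 protein in the cells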;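 on viability: percent of carrier control wells set as 100% viability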
Settings: 18-24 h, at 10 µM, stronger effect = lower value
I'd appreciate it if you could supply Her2 level values for the items below.
Hi! Could you send only the number? It should be in %, unit omitted.

Q) Record `CCC(=O)Nc1c(C#N)c2nc3ccccc3nc2n1-c1ccccc1C` : what is its Her2 level with Receptor tyrosine-protein kinase erbB-2 (Homo sapiens) (UniProt P04626)?
A) 82.5

Q) Then `COc1ccc(NC(=O)Nc2cc(C)ccc2OC)cc1` ?
A) 109

Q) Then `CCN(C1CCCCC1)S(=O)(=O)c1ccc(OC)c(C)c1` ?
A) 108

Q) Then `COc1cc(-c2nc(-c3cccc(C(F)(F)F)c3)no2)cc(OC)c1OC` ?
A) 99.5

Q) Then `CCOc1cc(C)c(Cl)cc1S(=O)(=O)N(C)C` ?
A) 90.5

Q) Then `CCOC(=O)c1[nH]c2ccc(OC)cc2c1NC(=O)CCN1CCC(C)CC1` ?
A) 94.5

Q) Then Cc1ccc(C(=O)N2CCCC(c3nc4c(nnn4Cc4ccccc4)c(=O)[nH]3)C2)cc1 (stereo unspecified) ?
A) 105

Q) Then `CC(=O)Nc1c2c(nn1-c1ccc(C)cc1C)CSC2` ?
A) 113

Q) Then `COc1ccc(S(=O)(=O)NCCC(=O)NC2CCCCCCC2)cc1` ?
A) 85.5

Q) Then `COc1ccc(C(=O)NCCCCCC(=O)O)cc1OC` ?
A) 99

Q) Then `CCNC(=O)Cn1cnc2c1c(=O)n(C)c(=O)n2C` ?
A) 108

---

Assay: growth suppression of yeast trafficking mutant, preliminary HTS, modulators of trafficking downstream of Golgi apparatus project, 1536-format plate, OD 615 nm (AID 637)
Conditions: yeast transport mutant growth, absorbance 615 nm, 18 h; stronger effect = higher value
measurement.kind: inhibition (%)
Hi! Could you send only the number? It should be in %, unit omitted.

Q) For COc1ccc(C(=O)N(Cc2ccco2)C(C(=O)NC2CCCC2)c2ccc(O)cc2)cc1OC (stereo unspecified) , what is its reported inhibition?
A) -8

Q) Then COc1ccc(-c2[nH]nc3c2C(c2ccccc2OC(=O)N2CCOCC2)C(C#N)=C(N)O3)cc1 (stereo unspecified) ?
A) -1.45

Q) Then `CCSc1nc(C)nc2c1oc1ccccc12` ?
A) -5.74

Q) Then `COc1ccc(C(=O)NCCn2ccc3ccccc32)cc1` ?
A) 0.16

Q) Then CCN1CCCC1CN=Cc1c(O)n(-c2ccccc2)c(=O)c2ccccc12 (stereo unspecified) ?
A) -2.54

Q) Then CCOc1ccc(N2CC(C(=O)Nc3cccc(C)c3C)CC2=O)cc1 (stereo unspecified) ?
A) -4.43

Q) Then `CCCCn1c(SCC(=O)c2ccc3c(c2)OCCO3)nnc1-c1ccco1` ?
A) 16.1

Q) Then `CCn1nnnc1NCc1cccn1C` ?
A) 2.3

Q) Then COc1ccccc1C(=O)N1CCNC(=O)C1CC(=O)Nc1ccc(Cl)cc1 (stereo unspecified) ?
A) -2.74

Q) Then `COc1ccc(C)cc1NC(=O)c1nc2nc(C)cc(C)n2n1` ?
A) -1.11

Q) Then `c1cnn(-c2cc(N3CCOCC3)ncn2)c1` ?
A) 21.6

---

I'd appreciate it if you could supply differential viability (reversal) values for the items below.
Assay: reversal of MRP1-mediated doxorubicin resistance, pilot screen, H69AR cells, doxorubicin co-treatment (AID 601)
Settings: H69AR cells + 2 uM doxorubicin, CellTiter-Glo, 72 h; at 10 µM; stronger effect = higher value
The source made the active and inactive calls.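 The calls were made as follows: active = viability loss from added drug above about 55%, and viability with drug at most 40%, in both replicates (limit read from the data, passing the limit was not always enough); inconclusive = both conditions met in only one replicate; inactive = neither replicate meets both conditions.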

Q) For `COc1ccc(C2(CN(C(C)=O)C(C)=O)CCCC2)cc1OC` , what is its reported differential viability (reversal)?
A) 1.69% (inactive)

Q) Then `COc1ccc(-c2ccc(Nc3ccc(S(=O)(=O)N4CCCC4)cc3)nn2)cc1OC` ?
A) -2.87% (inactive)

Q) Then O=C(CCn1c(=S)[nH]c2ccccc2c1=O)NCC1CCCO1 (stereo unspecified) ?
A) 6.03% (inactive)

Q) Then O=C(Cc1ccccc1)N1CCCC(c2nc(-c3cccs3)no2)C1 (stereo unspecified) ?
A) 16.8% (inactive)

Q) Then `COCCN(CCOC)S(=O)(=O)c1ccc(C(=O)Nc2nnc(C3CC3)o2)cc1` ?
A) -1.53% (inactive)

Q) Then `CCCn1c(NCc2ccc3c(c2)OCO3)nc2ccccc21` ?
A) 12.3% (inactive)

Q) Then `CCN(CC)S(=O)(=O)c1cccc2c(N(C)C)cccc12` ?
A) 4.14% (inactive)

Q) Then `COc1ccc(-c2nnc(-c3cccs3)o2)cc1OC` ?
A) 1.17% (inactive)

Q) Then `CC(C)CCNc1cc(=O)n(C)c(=O)n1C` ?
A) -0.405% (inactive)

Q) Then `COc1ccc(C)cc1NC(=O)CSc1nnnn1Cc1ccccc1` ?
A) 6% (inactive)

Q) Then `Cc1noc(C)c1S(=O)(=O)Nc1c(C)n(C)n(-c2ccccc2)c1=O` ?
A) 8.05% (inactive)

---

I'd appreciate it if you could supply differential viability (reversal) values for the items below.
Experiment: reversal of MRP1-mediated doxorubicin resistance, pilot screen, H69AR cells, doxorubicin co-treatment (AID 601)
Conditions: H69AR cells + 2 uM doxorubicin, CellTiter-Glo, 72 h; at 10 µM; stronger effect = higher value
Hi! Could you send only the number? It should be in %, unit omitted.

Q) For `CC(=O)Nc1c2c(nn1-c1ccc(C)cc1C)CSC2` , what is its reported differential viability (reversal)?
A) -2.51

Q) Then `Cc1cc(Cl)c(S(=O)(=O)NC2CCCCC2)cc1OCC(=O)Nc1nncs1` ?
A) -3.42

Q) Then `CCOc1ccccc1CNC(=O)CCN1C(=O)COc2ccccc21` ?
A) 3.42

Q) Then Cc1nc(NC2=NCN(CC3CCCO3)CN2)nc2ccccc12 (stereo unspecified) ?
A) -13.8

Q) Then `COc1ccccc1Cn1nnc2c(=O)[nH]c(C3CCN(C(=O)c4ccccc4Cl)CC3)nc21` ?
A) 54.1

Q) Then CC(NS(=O)(=O)c1ccccc1)C(c1cccs1)N1CCN(C)CC1 (stereo unspecified) ?
A) 15

Q) Then `CCCCOc1ccc(CSc2n[nH]c(C)n2)cc1` ?
A) 10.7

Q) Then `CCOC(=O)c1cnn(-c2cc(C)nc3c(-c4ccccc4)c(C)nn23)c1N` ?
A) 15.7

Q) Then Cc1ccc(CN2C(=O)CCC2C(=O)NCCCN2CCC(C)CC2)cc1 (stereo unspecified) ?
A) 2.18

Q) Then `COc1ccc(C(=O)NCCCCCC(=O)O)cc1OC` ?
A) -8.78

Q) Then COc1cccc(C2C(C#N)=C(N)OC3=C2C(=O)CCC3)c1OC(=O)c1ccco1 (stereo unspecified) ?
A) 13.1

---

I'd appreciate it if you could supply viability values for the items below.
Assay: reducers of endogenous Her2 protein level, primary screen, SKBR3 breast tumor cells, AlphaScreen, ATP viability (AID 461);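 on viability: percent of carrier control wells set as 100% viability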
Details: 18-24 h, measured here: SKBR3 viability, ATP luminescence, at 10 µM
Hi! Could you send only the number? It should be in %, unit omitted.

Q) For `Cc1ccc(S(=O)(=O)N2CCOCC(=O)NCCOCCNC(=O)COCC2)cc1` , what is its reported viability?
A) 93.5

Q) Then `O=C(Nc1cccc(C(F)(F)F)c1)c1cccnc1N1CCCC1` ?
A) 99

Q) Then `Cc1cc(NC(=O)CSc2nc3ccccc3n2CC(=O)N2CCCCC2)no1` ?
A) 78

Q) Then CC(C)=CCCC(C)CN(C)CCc1ccccn1 (stereo unspecified) ?
A) 79

Q) Then `CC(C)CCNC(=O)C1CCN(C(=O)N(C)C)CC1` ?
A) 104

Q) Then `O=C(NCc1ccccn1)c1cccs1` ?
A) 97

---

Experiment: 384-well plate pilot, post-Golgi transport modulator project, inhibition of yeast transport mutant growth (AID 636)
Settings: absorbance 615 nm, about 18 h, stronger effect = higher value
measurement.kind: inhibition (%)
Hi! Could you send only the number? It should be in %, unit omitted.

Q) For CCC(C)(C)NC(=O)C(c1ccco1)N(C(=O)Cn1nnc2ccccc21)c1ccc2c(c1)OCO2 (stereo unspecified) , what is its reported inhibition?
A) -0.53

Q) Then CCOc1cc(C2C(C(=O)OC(C)C)=C(C)N=C3SCCC(=O)N32)ccc1OC(C)=O (stereo unspecified) ?
A) -2.89

Q) Then O=C(NC1CCS(=O)(=O)C1)c1c(NC(=O)C2COc3ccccc3O2)sc2c1CCCC2 (stereo unspecified) ?
A) -4.67

Q) Then `O=C1CCC(=O)N1OCCCCOc1ccccc1` ?
A) -3.55

Q) Then `O=C(NCCC1=CCCCC1)c1cc2c(s1)CS(=O)(=O)C2` ?
A) -3.77

Q) Then `COc1ccc(CNc2ccc(C(=O)O)cc2)cc1` ?
A) -3.87

Q) Then `O=C(NCCCNC1CCCCC1)c1ccc(/C=N/O)nc1` ?
A) -0.91

Q) Then `COc1ccccc1S(=O)(=O)n1cc(Cc2ccccc2)c(N)n1` ?
A) -2.37

Q) Then CS(=O)(=O)N1CCCC(C(=O)NCCCN2CCc3ccccc3C2)C1 (stereo unspecified) ?
A) -0.91

Q) Then `C=CCNC(=O)CSc1ccc(Cl)cc1` ?
A) -4.21

Q) Then `O=C(O)c1cc(Cl)c(Cl)cc1C(=O)N1CCCC1` ?
A) -1.79
